// reported IC50 per item
Molecular target: full-length beta-Catenin (Uniprot ID P35222) (Homo sapiens, UniProt P35222)
Construct: 10 nM full-length beta-Catenin (Uniprot ID P35222)
Sequence (P35222 1-781): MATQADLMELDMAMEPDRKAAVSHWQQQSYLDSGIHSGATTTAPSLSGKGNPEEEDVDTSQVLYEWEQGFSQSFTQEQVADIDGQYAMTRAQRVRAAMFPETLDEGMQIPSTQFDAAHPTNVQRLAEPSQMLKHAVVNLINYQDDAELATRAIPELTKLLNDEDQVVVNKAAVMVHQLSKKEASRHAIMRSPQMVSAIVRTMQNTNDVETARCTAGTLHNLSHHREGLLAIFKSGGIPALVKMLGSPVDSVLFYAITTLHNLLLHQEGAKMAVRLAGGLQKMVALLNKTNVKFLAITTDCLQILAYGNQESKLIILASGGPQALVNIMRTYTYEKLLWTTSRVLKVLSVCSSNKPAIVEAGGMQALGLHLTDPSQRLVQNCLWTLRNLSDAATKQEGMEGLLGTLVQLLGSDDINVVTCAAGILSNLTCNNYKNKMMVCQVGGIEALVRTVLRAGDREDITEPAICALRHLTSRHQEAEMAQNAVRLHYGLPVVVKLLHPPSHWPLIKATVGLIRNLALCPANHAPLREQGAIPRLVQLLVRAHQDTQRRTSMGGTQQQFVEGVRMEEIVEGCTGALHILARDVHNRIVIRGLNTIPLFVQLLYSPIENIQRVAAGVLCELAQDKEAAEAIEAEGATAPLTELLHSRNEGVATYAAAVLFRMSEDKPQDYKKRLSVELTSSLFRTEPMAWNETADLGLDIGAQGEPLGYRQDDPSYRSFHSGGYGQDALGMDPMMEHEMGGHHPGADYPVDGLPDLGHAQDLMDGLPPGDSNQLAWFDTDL
Assay: Fluorescence polarization IC50 (beta-catenin / 5FAM-TCF4 10-53 competition)
Format: binding
Settings: fluorescence polarization; read-out: beta-Catenin FP IC50
Supply the numeric figure in nM, leaving out any unit text.

CC(=O)N1CCC[C@]12CC=CCCCC1(CCCC=CCCCOC(=O)N3CC[C@@](C(=O)N[C@@H](Cc4ccccc4Cl)C(=O)N[C@@H](Cc4csc5ccccc45)C(=O)N[C@@H](CCC(N)=O)C(N)=O)(C3)NC(=O)[C@H](CC(N)=O)NC(=O)[C@H](Cc3ccccc3N)NC(=O)[C@H](C)NC(=O)[C@H](C)NC(=O)[C@H](CC(=O)O)NC(=O)[C@H](CC(=O)O)NC1=O)NC(=O)[C@H](CC(C)(C)C)NC(=O)[C@H](CC(=O)O)NC2=O (stereo partly drawn) ... 28
CC(=O)N1CCC[C@]12CC=CCCCC1(CCCC=CCOC(=O)N(C)CCC[C@@](C)(C(=O)N[C@@H](Cc3cccc(F)c3)C(=O)N[C@@H](Cc3csc4ccccc34)C(=O)N[C@@H](CCC(N)=O)C(N)=O)NC(=O)[C@H](C(C)C)NC(=O)[C@H](Cc3ccccc3)NC(=O)[C@H](C)NC(=O)[C@H](C)NC(=O)[C@H](Cc3c[nH]cn3)NC(=O)[C@H](CC(=O)O)NC1=O)NC(=O)[C@H](C)NC(=O)[C@H](CC(=O)O)NC2=O (stereo partly drawn) ... 2150
CC(=O)N1CCC[C@]12CC=CCCCC1(CCCC=CCCCCCC[C@@](C)(C(=O)N[C@@H](Cc3ccccc3)C(=O)N[C@@H](Cc3csc4ccccc34)C(=O)N[C@@H](CCC(N)=O)C(=O)NC(C)(C)C(N)=O)NC(=O)[C@H](CC(N)=O)NC(=O)[C@H](Cc3ccccc3)NC(=O)[C@H](C)NC(=O)[C@H](C)NC(=O)[C@H](CCC(=O)O)NC(=O)[C@H](CC(=O)O)NC1=O)NC(=O)[C@H](CC(C)C)NC(=O)[C@H](CC(=O)O)NC2=O (stereo partly drawn) [I-737] ... 353
CC(=O)N1CCC[C@]12CC=CCCCC1(CCCC=CCCCOC(=O)N3CC[C@@](C(=O)N[C@@H](Cc4ccsc4)C(=O)N[C@@H](Cc4csc5ccccc45)C(=O)N[C@@H](C)C(N)=O)(C3)NC(=O)[C@H]([C@@H](C)O)NC(=O)[C@H](Cc3ccccc3)NC(=O)[C@H](C)NC(=O)[C@H](C)NC(=O)[C@H]([C@@H](C)O)NC(=O)[C@H](CC(N)=O)NC1=O)NC(=O)[C@H](CC(C)(C)C)NC(=O)[C@H](CC(=O)O)NC2=O (stereo partly drawn) ... 656
CC(=O)N1CC2CC1C(=O)N[C@@H](CC(=O)O)C(=O)N[C@@H](CC(C)(C)C)C(=O)NC1(CCCC=CCCCOC(=O)N3CC[C@@](C(=O)N[C@@H](Cc4ccsc4)C(=O)N[C@@H](Cc4csc5ccccc45)C(=O)N[C@@H](CCC(N)=O)C(N)=O)(C3)NC(=O)[C@H](CC(N)=O)NC(=O)[C@H](Cc3ccccc3)NC(=O)[C@H](C)NC(=O)[C@H](C)NC(=O)[C@H](CC(=O)O)NC(=O)[C@H](CC(=O)O)NC1=O)CCCC=CCC(=O)O2 (stereo partly drawn) ... 79
CC(=O)N1CCC[C@]12CC=CCCCC1(CCCC=CCCCCCC[C@@](C)(C(=O)N[C@@H](Cc3ccccc3Cl)C(=O)N[C@@H](Cc3csc4ccccc34)C(=O)N[C@@H](CCO)C(N)=O)NC(=O)[C@H](CC(C)C)NC(=O)[C@H](Cc3ccccc3)NC(=O)[C@H](C)NC(=O)[C@H](C)NC(=O)[C@H](CC(=O)O)NC(=O)[C@H](CC(=O)O)NC1=O)NC(=O)[C@H](CC(C)(C)C)NC(=O)[C@H](CC(=O)O)NC2=O (stereo partly drawn) ... 85

### Prompt IC50 of CC(=O)N1CCC[C@]12CC=CCCCC1(CCCC=CCCCOC(=O)N3CC[C@@](C(=O)N[C@@H](Cc4ccsc4)C(=O)N[C@@H](Cc4csc5ccccc45)C(=O)N[C@@H](Cc4c[nH]c5ccccc45)C(N)=O)(C3)NC(=O)[C@H](CC(N)=O)NC(=O)[C@H](Cc3ccccc3)NC(=O)[C@H](C)NC(=O)C(C)(C)NC(=O)[C@H]([C@@H](C)O)NC(=O)[C@H](CC(N)=O)NC1=O)NC(=O)[C@H](CC(C)(C)C)NC(=O)[C@H](CC(=O)O)NC2=O (stereo partly drawn) on full-length beta-Catenin (Uniprot ID P35222) (Homo sapiens, UniProt P35222)?
### Response 754

### Prompt Kindly state the measured IC50 obtained for CC(=O)N1CCC[C@]12CC=CCCCC1(CCCC=CCCCOC(=O)N3CC[C@@](C(=O)N[C@@H](Cc4ccsc4)C(=O)N[C@@H](Cc4csc5ccccc45)C(=O)N[C@@H](CCC(N)=O)C(N)=O)(C3)NC(=O)[C@H](CC(C)C)NC(=O)[C@H](Cc3ccccc3)NC(=O)[C@H](C)NC(=O)[C@H](C)NC(=O)[C@H](CC(=O)O)NC(=O)[C@H](CC(=O)OCCSSc3ccccn3)NC1=O)NC(=O)[C@H](CC(C)(C)C)NC(=O)[C@H](CC(=O)O)NC2=O (stereo partly drawn) with full-length beta-Catenin (Uniprot ID P35222) (Homo sapiens, UniProt P35222).
### Response 234

### Prompt Fill in the recorded IC50 for this compound, with full-length beta-Catenin (Uniprot ID P35222) (Homo sapiens, UniProt P35222) as test system: CC(=O)N1CCC[C@]12CC=CCCCC1(CCCC=CCCCOC(=O)N3CC[C@@](C(=O)N[C@@H](Cc4ccsc4)C(=O)N[C@@H](Cc4c[nH]c5ccccc45)C(=O)N[C@@H](CO)C(N)=O)(C3)NC(=O)[C@H](CC(C)C)NC(=O)[C@H](Cc3ccccc3)NC(=O)[C@H](C)NC(=O)[C@H](C)NC(=O)[C@H](CC(=O)O)NC(=O)[C@H](CC(=O)O)NC1=O)NC(=O)[C@H](CC(C)(C)C)NC(=O)[C@H](CC(=O)O)NC2=O (stereo partly drawn)
### Response 27
